system: UniProtKB A0A2K5ULY1
protocol details: Inhibition of cortisol synthesis (cynomolgus adrenal mitochondria, cortisol by mass spectrometry)
Type: biochemical, cynomolgus monkey
condition summary: 11-deoxycortisol substrate, 150 units CYP11B1; read-out: Cortisol Inhibition IC50
pIC50: −log10 of the molar value.
Mark yes (1) for reported pIC50 of 5 or greater; mark no (0) for anything smaller.

CC1(C)CC(=O)c2c(ncn2Cc2ccc(F)cc2)C1 ... yes (1)

Q: Could you verify whether the entry Cc1nnsc1Cn1cnc2c1C(=O)CC(C)(C)C2 shows pIC50 of no less than 5?
A: no (0)

Q: Does pIC50 meet or surpass 5 for CC1(C)CC(=O)c2c(ncn2C2CCc3cc(C#N)ccc3C2)C1 (stereo not drawn) ?
A: no (0)

Q: Does the reported pIC50 for CN1C(=O)CCc2cc(-n3cnc4c3C(=O)CCC4)ccc21 fall at or above the 5 mark?
A: no (0)

Q: Threshold query (pIC50 >= 5) on CN1Cc2cc(-n3cnc4c3C(=O)CCC4)ccc2CC1=O
A: no (0)

Q: Test whether the compound CC1(C)CC(=O)c2c(ncn2C2Cc3ccccc3C2)C1 records pIC50 of 5 or higher.
A: no (0)

Q: # bool: pIC50 of CC1(C)CC(=O)c2c(ncn2Cc2ccc(S(C)(=O)=O)cc2)C1 >= 5
A: yes (1)

Q: Entry CC1(C)CC(=O)c2c(ncn2-c2ccc(Cl)cc2Cl)C1 : is its pIC50 no less than 5?
A: yes (1)

Q: Answer whether pIC50 of C[C@@H]1Cc2cc(-n3cnc4c3C(=O)CCC4)ccc2O1 (stereo in doubt) is greater than or equal to 5.
A: no (0)

Q: Hi, just wondering whether CN1C(=O)CCc2cc(-n3cnc4c3C(=O)CCC4)cnc21 shows pIC50 of 5 or higher.
A: no (0)

Q: Check this compound for pIC50 at or above 5: CC1(C)CC(=O)c2c(ncn2-c2ccc(C#N)cc2)C1
A: yes (1)

Q: Item CCO[C@H]1C[C@H](n2cnc3c2C(=O)CC(C)(C)C3)C12CCC2 (relative stereo) with pIC50 of 5 or above?
A: no (0)

Q: Item CC1(C)CC(=O)c2c(ncn2-c2cccc(C(F)(F)F)c2)C1 with pIC50 of 5 or above?
A: no (0)

Q: Check this compound for pIC50 at or above 5: O=C1CCCc2ncn(-c3ccc4c(c3)COC4)c21
A: no (0)

Q: Assess whether reported pIC50 for CC(C)Oc1ccc(-n2cnc3c2C(=O)CC(C)(C)C3)cc1Cl sits at 5 or higher.
A: no (0)

Q: Test whether the compound CC1(C)CC(=O)c2c(ncn2-c2ccc(Cl)cc2)C1 records pIC50 of 5 or higher.
A: yes (1)

Q: # bool: pIC50 of O=C1CC2(CCC2)Cc2ncn(-c3ccc(F)c(F)c3)c21 >= 5
A: yes (1)

Q: I'd appreciate it if you could say whether N#Cc1ccc(-n2cnc3c2C(=O)CCC3)cc1 has pIC50 at least equal to 5.
A: yes (1)

---

system: aldosterone synthase (CYP11B2) (Macaca fascicularis, UniProt A0A2K5UPL9)
Sequence (A0A2K5UPL9 1-503): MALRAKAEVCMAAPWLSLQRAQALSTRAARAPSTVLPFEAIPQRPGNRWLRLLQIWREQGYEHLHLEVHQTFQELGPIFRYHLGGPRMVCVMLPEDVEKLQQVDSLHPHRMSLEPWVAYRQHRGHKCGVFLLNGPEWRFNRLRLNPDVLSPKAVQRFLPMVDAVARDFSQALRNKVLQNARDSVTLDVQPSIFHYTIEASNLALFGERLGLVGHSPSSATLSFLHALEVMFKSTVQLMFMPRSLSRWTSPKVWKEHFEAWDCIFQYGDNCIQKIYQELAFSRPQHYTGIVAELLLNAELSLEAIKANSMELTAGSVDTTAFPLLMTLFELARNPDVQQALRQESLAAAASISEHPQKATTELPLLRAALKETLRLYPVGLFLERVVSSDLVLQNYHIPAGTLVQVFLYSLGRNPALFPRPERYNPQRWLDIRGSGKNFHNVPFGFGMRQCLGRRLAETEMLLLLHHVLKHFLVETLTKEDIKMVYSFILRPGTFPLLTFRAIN
protocol details: Inhibition of aldosterone synthase (cynomolgus adrenal mitochondria, aldosterone by mass spectrometry)
Assay type: biochemical, cynomolgus monkey
condition summary: 2 μM corticosterone substrate, 50 units CYP11B2, 90 min, 37° C.; read-out: Aldosterone Inhibition IC50
pIC50: −log10 of the molar value.
Label rule, in plain words: pIC50 of 7 and up is criterion met, under 7 is criterion not met.

Previously resolved entries follow.
Cc1cc(-n2cnc3c2C(=O)CC2(CCC2)C3)ccc1C#N ... criterion met
N#Cc1ccc(-n2cnc3c2C(=O)CC2(CCOCC2)C3)cc1Cl ... criterion met
CC1(C)CC(=O)c2c(ncn2CC2CC2)C1 ... criterion not met
N#Cc1ccc(-n2cnc3c2C(=O)C[C@@H](C(N)=O)C3)cc1Cl ... criterion not met
N#Cc1ccc(-n2cnc3c2C(=O)CC2(CC2)C3)cc1 ... criterion met

Turning now to a further molecule:
Q: Textbook exercise: given the entry CN(CCO)C(=O)c1ccc(Cn2cnc3c2C(=O)CC(C)(C)C3)cc1 , state whether its pIC50 is greater than or equal to 7.
A: criterion not met
